- Subject of test: Histamine H1 receptor (Homo sapiens) (UniProt P35367)
- Sequence (P35367 whole entry): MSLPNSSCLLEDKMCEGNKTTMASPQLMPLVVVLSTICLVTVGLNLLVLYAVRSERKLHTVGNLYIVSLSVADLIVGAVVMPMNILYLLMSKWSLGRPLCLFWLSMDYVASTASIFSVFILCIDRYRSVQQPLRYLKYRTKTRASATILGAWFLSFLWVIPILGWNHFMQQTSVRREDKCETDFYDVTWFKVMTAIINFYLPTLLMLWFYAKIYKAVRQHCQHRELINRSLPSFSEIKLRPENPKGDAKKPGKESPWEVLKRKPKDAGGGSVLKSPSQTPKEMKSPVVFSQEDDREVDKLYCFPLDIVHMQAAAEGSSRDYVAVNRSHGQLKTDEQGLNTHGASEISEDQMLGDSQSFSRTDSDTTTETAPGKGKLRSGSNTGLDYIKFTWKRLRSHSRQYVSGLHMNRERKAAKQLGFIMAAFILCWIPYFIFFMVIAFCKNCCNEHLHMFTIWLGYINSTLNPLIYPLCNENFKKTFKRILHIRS
- Reported conditions: Compound concentration 10 µM
- Description: PDSP Primary Binding target: HRH1 - Compounds are tested at 10 uM concentration, plate are incubated at room temperature in the dark for 90 minutes. Reaction are stopped by vacuum filtration onto 0.3% polyethyleneimine soaked filter mats using Filtermate harvester. Scintilation cocktail is then melted onto microwave-dried filters on a hot plate and the radio activity is counted in Microbia counter.
Would you kindly list inhibition for each of these molecules?
Unit % implied. Number only.

Data request: Reported inhibition for `c1nc(CC2CCNCC2)c[nH]1` : what is it?
Data returned: 26.1

Data request: Reported inhibition for `Cc1cc(NC(=O)Nc2ccc(N(C)C)cc2)c2cc(F)cc(F)c2n1` : what is it?
Data returned: 6.41

Data request: Reported inhibition for `N=C(N)SCCc1c[nH]cn1` : what is it?
Data returned: 6.96

Data request: Reported inhibition for O=C(c1cc2c(cc1F)OC(c1ccc(F)cc1)(c1ccc(Cl)cc1Cl)O2)N1CCOCC1 (centres undefined) : what is it?
Data returned: 15.4

Data request: Reported inhibition for `Cc1csc(NC(=O)c2cc(F)cc(Oc3cncnc3)c2)n1` : what is it?
Data returned: -6.12

Data request: Reported inhibition for `Cc1csc2c(N[C@@H](C)CN3CCN(S(=O)(=O)c4ccc(Cl)c(Cl)c4)CC3)ncnc12` : what is it?
Data returned: 20.4

Data request: Reported inhibition for OCc1cc(C(O)CNCCCCCCOCCCCc2ccccc2)ccc1O (centres undefined) : what is it?
Data returned: 27.7

Data request: Reported inhibition for `NCCc1c[nH]c2ccc(C(N)=O)cc12` : what is it?
Data returned: -4.09

Data request: Reported inhibition for `COC1CCN(c2cccc(-c3cc(NC(C)=O)nc(-n4nc(C)cc4C)n3)n2)CC1` : what is it?
Data returned: 14.4

Data request: Reported inhibition for `Cc1nc2sccn2c(=O)c1CCN1CCC(=C(c2ccc(F)cc2)c2ccc(F)cc2)CC1` : what is it?
Data returned: 98.3

Data request: Reported inhibition for `C/C(=N\NC(=O)[C@@H]1C(=O)NC[C@H]1c1ccccc1)c1cccc(Br)c1` : what is it?
Data returned: 58.5

Data request: Reported inhibition for `CCc1cc(C(C)=O)c(O)cc1OCCCCCC(C)(C)c1nn[nH]n1` : what is it?
Data returned: 17.1

Data request: Reported inhibition for `CC1CCN(CC[C@H]2CCCN2S(=O)(=O)c2cccc(O)c2)CC1` : what is it?
Data returned: 44.4

Data request: Reported inhibition for `CN(C)C(=O)N[C@H]1CC[C@H](CCN2CCN(c3cccc(Cl)c3Cl)CC2)CC1` : what is it?
Data returned: 98.7

Data request: Reported inhibition for `O=c1ccn([C@@H]2O[C@H](COP(=O)(O)OP(=O)(O)O)[C@@H](O)[C@H]2O)c(=O)[nH]1` : what is it?
Data returned: 34.8

Data request: Reported inhibition for `NC(=O)[C@@H]1CCCN1C(=O)[C@H](Cc1c[nH]cn1)NC(=O)[C@@H]1CCC(=O)N1` : what is it?
Data returned: 9.67

Data request: Reported inhibition for `CS(=O)(=O)NC[C@H]1CC[C@H](Nc2nc3c(s2)CCSc2ccccc2-3)CC1` : what is it?
Data returned: 18.7

Data request: Reported inhibition for `CCCCCNC(=O)NS(=O)(=O)c1cc([N+](=O)[O-])ccc1NC1CCCCC1` : what is it?
Data returned: 12.8

Data request: Reported inhibition for `Cc1cccc(NC(=O)N[C@@H]2N=C(c3ccccc3)c3ccccc3N(C)C2=O)c1` : what is it?
Data returned: 12.5

Data request: Reported inhibition for `COc1cc(-n2cnc3cc(-c4ccc(Cl)cc4)sc3c2=O)ccc1OCCN1CCCC1` : what is it?
Data returned: 42.2

Data request: Reported inhibition for `Cc1nnn(-c2ccc(-c3ccc(C4(C(=O)O)CC4)cc3)cc2)c1NC(=O)O[C@H](C)c1ccccc1` : what is it?
Data returned: 52.8

Data request: Reported inhibition for `CC(C)Oc1ccccc1C(=O)Nc1ccccc1C(=O)Nc1cccc(S(=O)(=O)C(F)(F)F)c1` : what is it?
Data returned: 2.1

Data request: Reported inhibition for `Cc1cc(C)cc(-c2cnc3cc(Cl)c(-c4cccc(O)c4)cc3c2OCCCN)c1` : what is it?
Data returned: 98.8

Data request: Reported inhibition for `CC1=C2C[C@H]3[C@@H](CC=C4C[C@@H](O)CC[C@@]43C)[C@@H]2CC[C@]12O[C@@H]1C[C@H](C)CN[C@H]1[C@H]2C` : what is it?
Data returned: 40.4

Data request: Reported inhibition for `CCCn1c(=O)c2[nH]c(-c3cnn(Cc4cccc(C(F)(F)F)c4)c3)nc2n(CC)c1=O` : what is it?
Data returned: -0.63

Data request: Reported inhibition for `N#Cc1cccc(C(=O)Nc2cc(-c3ccccc3)nn2-c2ccccc2)c1` : what is it?
Data returned: -6.18

Data request: Reported inhibition for `CC(C)[C@H](CO)Nc1nc(Nc2cccc(Cl)c2)c2ncn(C(C)C)c2n1` : what is it?
Data returned: -4.77

Data request: Reported inhibition for `Cc1cc(C(=O)N2Cc3cnn(C)c3Nc3ccccc32)ccc1CNC(=O)N1CCC[C@H]1C(=S)N1CCCN(C)CC1` : what is it?
Data returned: 24.4

Data request: Reported inhibition for `Cc1c(F)cccc1NC(=O)Nc1ccc(Cl)c(S(=O)(=O)[C@H]2CCCNC2)c1O` : what is it?
Data returned: 25.6

----------
- Subject of test: Muscarinic acetylcholine receptor M5 (Homo sapiens) (UniProt P08912)
- Sequence (P08912 whole entry): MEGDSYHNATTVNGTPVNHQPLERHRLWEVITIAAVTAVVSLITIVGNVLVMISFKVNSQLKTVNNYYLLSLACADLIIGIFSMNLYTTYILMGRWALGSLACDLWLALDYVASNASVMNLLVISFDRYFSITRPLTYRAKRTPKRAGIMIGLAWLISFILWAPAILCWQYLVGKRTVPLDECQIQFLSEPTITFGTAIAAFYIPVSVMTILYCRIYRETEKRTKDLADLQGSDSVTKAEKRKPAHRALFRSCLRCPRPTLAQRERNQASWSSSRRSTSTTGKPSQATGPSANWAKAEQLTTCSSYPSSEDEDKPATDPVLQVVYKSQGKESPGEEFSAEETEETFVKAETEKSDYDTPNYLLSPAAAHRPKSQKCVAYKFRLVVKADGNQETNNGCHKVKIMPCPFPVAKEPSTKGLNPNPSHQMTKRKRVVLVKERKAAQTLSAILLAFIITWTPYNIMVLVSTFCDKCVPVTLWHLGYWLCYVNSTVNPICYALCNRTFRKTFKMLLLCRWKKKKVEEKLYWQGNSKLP
- Reported conditions: Compound concentration 10 µM
- Description: PDSP Primary Binding target: CHRM5 - Compounds are tested at 10 uM concentration, plate are incubated at room temperature in the dark for 90 minutes. Reaction are stopped by vacuum filtration onto 0.3% polyethyleneimine soaked filter mats using Filtermate harvester. Scintilation cocktail is then melted onto microwave-dried filters on a hot plate and the radio activity is counted in Microbia counter.
Experimental endpoint: inhibition (%)
Unit % implied. Number only.

Data request: Reported inhibition for `O=C(O)c1cc(-c2ccc(C3CCNCC3)cc2)c2ccc(-c3ccc(C(F)(F)F)cc3)cc2c1` : what is it?
Data returned: 51.9

Data request: Reported inhibition for `CN1C[C@H](C(=O)N[C@]2(C)O[C@@]3(O)[C@@H]4CCCN4C(=O)[C@H](Cc4ccccc4)N3C2=O)C[C@@H]2c3cccc4[nH]cc(c34)C[C@H]21` : what is it?
Data returned: 7.31

Data request: Reported inhibition for `CS(=O)(=O)NC[C@H]1CC[C@H](Nc2nc3c(s2)CCSc2ccccc2-3)CC1` : what is it?
Data returned: -4.92

Data request: Reported inhibition for `COc1ccc2cc(S(=O)(=O)N[C@H](CC(=O)N[C@H](Cc3ccc(CN4[C@H](C)CCC[C@@H]4C)cc3)C(=O)N(C)C(C)C)c3ccc4c(c3)OCO4)ccc2c1` : what is it?
Data returned: 52.8

Data request: Reported inhibition for `COc1cccc([C@@H](C)NCCCc2ccccc2Cl)c1` : what is it?
Data returned: 9.55

Data request: Reported inhibition for `COc1ccccc1CN[C@H]1C2CCN(CC2)[C@H]1C(c1ccccc1)c1ccccc1` : what is it?
Data returned: 56.2

Data request: Reported inhibition for `Cc1c(P(=S)(c2ccccc2)c2ccccc2)n2ccccc2[n+]1C/C=C/c1ccccc1` : what is it?
Data returned: 89

Data request: Reported inhibition for `COc1cc(-n2cnc3cc(-c4ccc(Cl)cc4)sc3c2=O)ccc1OCCN1CCCC1` : what is it?
Data returned: 64.9

----------
- Subject of test: Beta-2 adrenergic receptor (Homo sapiens) (UniProt P07550)
- Sequence (P07550 whole entry, looked up): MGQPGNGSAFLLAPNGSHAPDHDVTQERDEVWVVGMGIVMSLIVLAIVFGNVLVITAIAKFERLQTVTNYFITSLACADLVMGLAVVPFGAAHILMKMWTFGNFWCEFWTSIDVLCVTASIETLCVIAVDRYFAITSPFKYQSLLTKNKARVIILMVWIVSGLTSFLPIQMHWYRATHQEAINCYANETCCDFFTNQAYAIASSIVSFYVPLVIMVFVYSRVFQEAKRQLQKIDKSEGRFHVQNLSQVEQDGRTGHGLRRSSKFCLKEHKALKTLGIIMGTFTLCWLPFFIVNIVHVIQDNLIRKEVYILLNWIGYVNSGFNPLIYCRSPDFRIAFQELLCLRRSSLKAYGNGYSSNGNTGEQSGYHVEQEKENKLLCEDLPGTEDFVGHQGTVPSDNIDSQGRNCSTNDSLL
- Reported conditions: Compound concentration 10 µM
- Description: PDSP Primary Binding target: ADRB2 - Compounds are tested at 10 uM concentration, plate are incubated at room temperature in the dark for 90 minutes. Reaction are stopped by vacuum filtration onto 0.3% polyethyleneimine soaked filter mats using Filtermate harvester. Scintilation cocktail is then melted onto microwave-dried filters on a hot plate and the radio activity is counted in Microbia counter.
Would you kindly list inhibition for each of these molecules?
Unit % implied. Number only.

Data request: Reported inhibition for `CN(C)S(=O)(=O)c1ccc(NC(=S)N2CCC(C(O)(c3ccccc3)c3ccccc3)CC2)cc1` : what is it?
Data returned: 71.8

Data request: Reported inhibition for `Clc1cccc(Cl)c1NC1=NCCN1` : what is it?
Data returned: -4.25

Data request: Reported inhibition for `CO[C@@H]1COCC[C@@H]1N[C@@H]1CC[C@@](C(=O)N2CCc3ncc(C(F)(F)F)cc3C2)(C(C)C)C1` : what is it?
Data returned: -6.91

Data request: Reported inhibition for `N#Cc1c(O)nc(SCc2cccc(F)c2F)nc1C1CC1` : what is it?
Data returned: 5.94

Data request: Reported inhibition for `Cc1nc2sccn2c(=O)c1CCN1CCC(=C(c2ccc(F)cc2)c2ccc(F)cc2)CC1` : what is it?
Data returned: 1.44

Data request: Reported inhibition for `CN[C@@H]1CCc2[nH]c3ccc(C(N)=O)cc3c2C1` : what is it?
Data returned: 22.7

Data request: Reported inhibition for `OC1(c2ccc(Cl)cc2)CCN(Cc2c[nH]c3ccccc23)CC1` : what is it?
Data returned: -1.99

Data request: Reported inhibition for `NCCc1c[nH]c2ccc(C(N)=O)cc12` : what is it?
Data returned: 4.33

Data request: Reported inhibition for `CCCCN(CC)c1nc(C)nc2c1c(C)cn2-c1c(C)cc(C)cc1C` : what is it?
Data returned: -7.68

Data request: Reported inhibition for `C/C(=N\NC(=O)[C@@H]1C(=O)NC[C@H]1c1ccccc1)c1cccc(Br)c1` : what is it?
Data returned: -2.57

Data request: Reported inhibition for `FC(F)(F)c1c(N2CCC(c3ccccc3)CC2)ccn2c(CC3CC3)nnc12` : what is it?
Data returned: -5.09

Data request: Reported inhibition for `CCCCCNC(=N)N/N=C/c1c[nH]c2ccc(OC)cc12` : what is it?
Data returned: 54.7

Data request: Reported inhibition for `CCCn1c(=O)c2nc(C34CC5CC(CC3C5)C4)[nH]c2n(CCC)c1=O` : what is it?
Data returned: 4.88

Data request: Reported inhibition for `COC1CCN(c2cccc(-c3cc(NC(C)=O)nc(-n4nc(C)cc4C)n3)n2)CC1` : what is it?
Data returned: 2.28

Data request: Reported inhibition for `Cc1csc2c(N[C@@H](C)CN3CCN(S(=O)(=O)c4ccc(Cl)c(Cl)c4)CC3)ncnc12` : what is it?
Data returned: 1.66

Data request: Reported inhibition for `CC1(C)SSC(C)(C)[C@@H](NC(=O)[C@@H](N)Cc2ccc(O)cc2)C(=O)NCC(=O)N[C@@H](Cc2ccccc2)C(=O)N[C@H]1C(=O)O` : what is it?
Data returned: -0.03

Data request: Reported inhibition for `CN(C)C(=O)C(CCN1CCC(O)(c2ccc(Cl)cc2)CC1)(c1ccccc1)c1ccccc1` : what is it?
Data returned: 44.6

Data request: Reported inhibition for `Cc1c(C2=CCN(C(=O)N(C)C(C)C)CC2)nnn1-c1cccnc1F` : what is it?
Data returned: -6.84

Data request: Reported inhibition for `O=S1(=O)c2cccc3cccc(c23)N1CCCN1CCN(c2ccc(F)cc2)CC1` : what is it?
Data returned: 21.3

Data request: Reported inhibition for `CN1C(=O)[C@@H](NC(=O)c2cc3ccccc3[nH]2)N=C(c2ccccc2)c2ccccc21` : what is it?
Data returned: 4.31

Data request: Reported inhibition for `N#Cc1ccc(NC(=O)Nc2ccccc2Br)c2nn[nH]c12` : what is it?
Data returned: -2.94

Data request: Reported inhibition for `CNC[C@H](O)c1ccc(O)c(O)c1` : what is it?
Data returned: 34.2

Data request: Reported inhibition for `Cc1c(P(=S)(c2ccccc2)c2ccccc2)n2ccccc2[n+]1C/C=C/c1ccccc1` : what is it?
Data returned: 65.4

Data request: Reported inhibition for `Brc1c(NC2=NCCN2)ccc2nccnc12` : what is it?
Data returned: -1.17

Data request: Reported inhibition for `O=C(O)Cn1c(C(=O)Nc2nc(-c3ccccc3Cl)cs2)cc2ccccc21` : what is it?
Data returned: -7.21

Data request: Reported inhibition for `CCc1ccc(OCc2ccccc2C(=O)Nc2ccc3nc(C)cc(N)c3c2)cc1` : what is it?
Data returned: 8.05

Data request: Reported inhibition for `CN1C[C@H](C(=O)N[C@]2(C)O[C@@]3(O)[C@@H]4CCCN4C(=O)[C@H](Cc4ccccc4)N3C2=O)C[C@@H]2c3cccc4[nH]cc(c34)C[C@H]21` : what is it?
Data returned: 18.1

Data request: Reported inhibition for `CC(C)[C@H](CO)Nc1nc(Nc2cccc(Cl)c2)c2ncn(C(C)C)c2n1` : what is it?
Data returned: -7.15

Data request: Reported inhibition for `CCc1nn(CCCN2CCN(c3cccc(Cl)c3)CC2)c(=O)n1CCOc1ccccc1` : what is it?
Data returned: -0.82

Data request: Reported inhibition for `NC[C@@H]1O[C@H](C23CC4CC(CC(C4)C2)C3)Cc2c1ccc(O)c2O` : what is it?
Data returned: 29.6

Data request: Reported inhibition for `N#Cc1ccc2[nH]cc(CCCCN3CCN(c4ccc5oc(C(N)=O)cc5c4)CC3)c2c1` : what is it?
Data returned: 56.2

Data request: Reported inhibition for `N#Cc1c[nH]c2c(C(=O)N3CCN(CCc4ccc(F)cc4)CC3)cccc12` : what is it?
Data returned: 60.9

Data request: Reported inhibition for `COC(=O)C1=C(C)NC(C)=C(C(=O)OCCCN2CCC(c3ccccc3)(c3ccccc3)CC2)[C@H]1c1cccc([N+](=O)[O-])c1` : what is it?
Data returned: 22.1

Data request: Reported inhibition for `CCCCCNC(=O)NS(=O)(=O)c1cc([N+](=O)[O-])ccc1NC1CCCCC1` : what is it?
Data returned: -4.07

Data request: Reported inhibition for `CCc1nn2c(C)cc(C)nc2c1Cc1ccc(-c2nnc(C3CCNCC3)o2)cc1` : what is it?
Data returned: 12.5

Data request: Reported inhibition for `Cc1nc(-c2ccc(-c3ccc(C(=O)N4CCc5cc6c(cc54)C4(CCN(C)CC4)CO6)cc3)c(C)c2)no1` : what is it?
Data returned: 10.4

Data request: Reported inhibition for `COc1ccnc(N2CCC3(CCCN(Cc4c[nH]c5ccccc45)C3=O)CC2)n1` : what is it?
Data returned: 11.9

Data request: Reported inhibition for `CC(C)NC(=O)c1ccc(C#Cc2ccncc2)cn1` : what is it?
Data returned: -8.85

Data request: Reported inhibition for `Cc1ccc2c(c1)c1c(n2CCc2ccc(C)nc2)CCN(C)C1` : what is it?
Data returned: -9.1

Data request: Reported inhibition for `CCOC(=O)c1cc(C#N)c(N2CCC(C(=O)NS(=O)(=O)Cc3ccccc3)CC2)nc1C` : what is it?
Data returned: -1.62
